Molecular target: T1, Macaque 46 mer peptide (RB exon of macaque CD45RB) (macaque)
T1 construct: synthetic peptide
T1 peptide: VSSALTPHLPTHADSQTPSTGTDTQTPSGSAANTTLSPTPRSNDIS
Test: recombinant antibody on peptide

[
  {
    "BINDER": "AB-CD45RB-XG2-713 (antibody, human IgG2, V domains shown, recombinant human IgG2 kappa; also called sc713) VH: QVQLVESGGGVVQPGRSLRLSCAASGFTFSNYGMHWVRQAPGKGLEWVAVIWYDGSKKFYADSVKGRFTISRDNFEKTLYLQMNSLRAEDTAVYYCARGGGDFDYWGQGTLVTVSS VL: EIVMTQSPATLSVSPGERATLSCRASQSLSGSYLAWYQQKPGQAPRLLIYSASTRATGIPARFSGSGSGTEFTLTISSLQSEDFAVYYCQQYNNWPPLTFGGGTKVEIK",
    "binding result": "no binding"
  },
  {
    "BINDER": "AB-CD45RB-XG2-539 (antibody, human IgG2, V domains shown, recombinant human IgG2 kappa; also called sc539) VH: QVQLQESGPGLVKPSETLSLTCTVSGGSISGSYWSWIRQPAGKGLEWIGRIHSTGKTAYNPSLKSRVIMSLDTSKNLFSLKLTSVTAADTAVYYCARDYDFLTGYFDYWGQGTLVTVSS VL: DVVMTQSPLSLPVTLGQPASISCRSSQSLVYGDGNTYLNWFQQRPGHSPRRLIYKVSNWDSGVPDRFSGSGSGTDFTLKISRVEAEDVGIYYCMQGTHWPPTFGQGTRVEIK",
    "binding result": "no binding"
  }
]

Reference source for all entries: patent US20030232009A1
